Recorded log10 of IC50 values for a group of molecules are listed next.
Test system: BA/F3 (insSVD) cells
Test: Ba/F3-EGFR-insSVD cell survival assay (Cell Titer-Glo)
Type: cell-based
Settings: Mus musculus, BaF3, 48 h, Table 3a, cell survival, Cell Titer-Glo, with 10 ng/ml EGF, without IL-3
Hey, these are logged values: log10 of IC50, nM being the unit before logging.

molecule=C=CC(=O)N1CCn2nc(-c3ccc(OC(F)F)cc3)c(-c3ccncc3)c2C1 experimental_value=2.14
molecule=CC(C)N(C)C/C=C/C(=O)N1CCn2nc(-c3ccc(F)cc3)c(-c3ccncc3)c2C1 experimental_value=2.16
molecule=C=C(CN1CCOCC1)C(=O)N1CCn2nc(-c3ccc(F)cc3)c(-c3ccncc3)c2C1 experimental_value=3.70

Input: Item CN(C)C/C=C/C(=O)N1CCn2nc(-c3ccc(C(F)F)cc3)c(-c3ccncc3)c2C1 : provide log10 of IC50
Output: 2.59

Input: Give the measured log10 of IC50 for O=C(Nc1cc(-c2c(-c3ccc(F)cc3)nn3c2CN(C(=O)C2CO2)CC3)ccn1)C1CC1 (centres unmarked)
Output: 3.31

Input: Identify log10 of IC50 associated with the molecule C=CC(=O)N1Cc2c(-c3ccncc3)c(-c3ccc(F)cc3)nn2C(CC(=O)N(C)C)C1 (centres unmarked)
Output: 2.13

Input: Could you please provide reported log10 of IC50 for C=CC(=O)N1Cc2c(-c3ccncc3)c(-c3ccc(Cl)cc3)nn2CC1(C)C ? Thanks!
Output: 2.58

Input: Return log10 of IC50 for the following molecule: C=CC(=O)N1Cc2c(-c3ccncc3)c(-c3ccc(F)cc3)nn2C(CC(=O)NC)C1 (centres unmarked)
Output: 2.59

---

Target: mutEGFR (D770_N771insSVD) (Homo sapiens, UniProt P00533, DUP768-770)
Construct: GST-EGFR #3 (SVD between D770 and N771); made in house; host or cells: Sf9 insect cells (baculovirus)
Sequence (P00533 with tags, fused parts or gaps DUP768-770): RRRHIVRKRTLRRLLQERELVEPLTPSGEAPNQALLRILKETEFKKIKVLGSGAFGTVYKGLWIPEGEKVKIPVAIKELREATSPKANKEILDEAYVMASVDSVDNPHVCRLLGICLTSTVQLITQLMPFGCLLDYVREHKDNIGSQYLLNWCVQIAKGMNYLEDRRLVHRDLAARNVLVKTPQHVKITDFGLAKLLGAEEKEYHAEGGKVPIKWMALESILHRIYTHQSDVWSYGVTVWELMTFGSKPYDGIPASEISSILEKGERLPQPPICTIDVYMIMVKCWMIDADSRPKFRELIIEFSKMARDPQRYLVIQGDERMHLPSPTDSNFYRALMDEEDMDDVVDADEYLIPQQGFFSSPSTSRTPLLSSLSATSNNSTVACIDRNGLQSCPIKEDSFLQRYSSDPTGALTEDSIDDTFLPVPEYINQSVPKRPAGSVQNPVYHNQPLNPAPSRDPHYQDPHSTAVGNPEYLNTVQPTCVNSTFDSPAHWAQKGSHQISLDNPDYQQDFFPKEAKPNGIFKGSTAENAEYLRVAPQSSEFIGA
Assay: Exon20-Mutant-EGFR (D770_N771insSVD) kinase assay (TR-FRET)
Format: biochemical
Conditions: mutEGFR (D770_N771insSVD) kinase assay IC50, Table 2a; D770_N771insSVD; 2 mM ATP
PARAMETER MEASURED: pIC50
Scale for pIC50: -log10 of concentration given in mol/L; no unit attached.

Record excerpt, results attached:
compound="C#Cc1ccc(-c2nn3c(c2-c2ccncc2)CN(C(=O)/C=C/CN(C)C)CC3)cc1 [Example 146]" experimental_value=6.17
compound="C=CC(=O)N1Cc2c(-c3ccncc3)c(-c3ccc(F)cc3)nn2C(CCO)C1 (centres unmarked) [Example 223]" experimental_value=9.47
compound="C=CC(=O)N1CCn2nc(-c3ccc(Cl)cc3CO)c(-c3ccncc3)c2C1 [Example 191]" experimental_value=9.20
compound="CN(C)C/C=C/C(=O)N1Cc2c(-c3ccncc3)c(-c3ccc(F)cc3)nn2C(CC(=O)N(C)C)C1 (racemic) [Example 222]" experimental_value=8.42
compound="C=CC(=O)N1CCn2nc(-c3ccc(Cl)cc3OC)c(-c3ccncc3)c2C1 [Example 116]" experimental_value=8.08

Input: Please give the documented pIC50 of O=C(C#CCN1CCOCC1)N1CCn2nc(-c3ccc(F)cc3)c(-c3ccncc3)c2C1 [Example 68]
Output: 8.27

Input: Give recorded pIC50. CN(C)CC#CC(=O)N1CCn2nc(-c3ccc(Cl)cc3F)c(-c3ccncc3)c2C1 [Example 72]
Output: 9.68

Input: Give pIC50 for C=CC(=O)N1CCn2nc(-c3ccc(C)cc3)c(-c3ccncc3)c2C1 [Example 138]
Output: 9.01

---

pIC50 values by entry
Molecular target: mutEGFR (D770_N771insSVD) (Homo sapiens, UniProt P00533, DUP768-770)
Construct: GST-EGFR #3 (SVD between D770 and N771); made in house; host or cells: Sf9 insect cells (baculovirus)
Experiment: Exon20-Mutant-EGFR (D770_N771insSVD) kinase assay (TR-FRET)
Assay type: biochemical
Conditions: mutEGFR (D770_N771insSVD) kinase assay IC50, Table 2a; D770_N771insSVD; 2 mM ATP
# pIC50: negative log10 of molar concentration; output just the value

compound="C=CC(=O)N1CCn2nc(-c3ccc(OC)c(F)c3)c(-c3ccncc3)c2C1 [Example 42]" experimental_system="mutEGFR (D770_N771insSVD) (Homo sapiens, UniProt P00533, DUP768-770)" experimental_value=9.00
compound="CN(C)C/C=C/C(=O)N1Cc2c(-c3ccncc3)c(-c3ccc(F)cc3)nn2C(C)(C)C1 [Example 213]" experimental_system="mutEGFR (D770_N771insSVD) (Homo sapiens, UniProt P00533, DUP768-770)" experimental_value=9.04
compound="C=CC(=O)N1CCn2nc(-c3ccc(Cl)c(F)c3)c(-c3ccncc3)c2C1 [Example 36]" experimental_system="mutEGFR (D770_N771insSVD) (Homo sapiens, UniProt P00533, DUP768-770)" experimental_value=9.49
compound="CC(C)N(C)C/C=C/C(=O)N1CCn2nc(-c3ccc(F)cc3)c(-c3ccncc3)c2C1 [Example 18]" experimental_system="mutEGFR (D770_N771insSVD) (Homo sapiens, UniProt P00533, DUP768-770)" experimental_value=9.35
compound="C=CC(=O)N1CCn2nc(-c3ccccc3OC)c(-c3ccncc3)c2C1 [Example 39]" experimental_system="mutEGFR (D770_N771insSVD) (Homo sapiens, UniProt P00533, DUP768-770)" experimental_value=7.42

Input: Look up and state reported pIC50 for C=CC(=O)N1CCn2nc(-c3ccc(C)cc3F)c(-c3ccnc4[nH]ccc34)c2C1 [Example 102]
Output: 8.32

Input: Could you please provide reported pIC50 for C=CC(=O)N1Cc2c(-c3ccncc3)c(-c3ccc(C(F)(F)F)cc3F)nn2C[C@H]1C [Example 125] ? Thanks!
Output: 8.95

Input: Provide only the value of recorded pIC50 for C=C(CN(C)C)C(=O)N1CCn2nc(-c3ccc(F)cc3)c(-c3ccncc3)c2C1 [Example 62]
Output: 7.53

Input: Please look at this compound and report its pIC50: C=CC(=O)N1C(C)c2c(-c3ccncc3)c(-c3ccc(Cl)cc3F)nn2C[C@H]1C (single isomer, unassigned; isomer 2) [Example 291]
Output: 8.95

Input: Please report the measured pIC50 for Cc1c[nH]c2nccc(-c3c(-c4cccc(C#N)c4)nn4c3CN(C(=O)/C=C/CN(C)C)[C@@H](C)C4)c12 [Example 288]
Output: 6.46

Input: Answer with the recorded pIC50 of C=CS(=O)(=O)N1CCn2nc(-c3ccc(F)cc3)c(-c3ccncc3)c2C1 [Example 14] only.
Output: 9.39

Input: Dear colleague, please send me the reported pIC50 for C=CC(=O)N1CCn2nc(-c3ccc4c(C)c[nH]c4c3)c(-c3ccncc3)c2C1 [Example 108] when you can.
Output: 9.45

Input: Using known records, supply pIC50 for C=CC(=O)N1Cc2c(-c3ccncc3)c(-c3cccc(C#N)c3)nn2C[C@H]1C [Example 126]
Output: 7.91

---

Biological target: mutEGFR (D770_N771insSVD) (Homo sapiens, UniProt P00533, DUP768-770)
Construct: GST-EGFR #3 (SVD between D770 and N771); made in house; host or cells: Sf9 insect cells (baculovirus)
Experiment: Exon20-Mutant-EGFR (D770_N771insSVD) kinase assay (TR-FRET)
Assay type: biochemical
Settings: mutEGFR (D770_N771insSVD) kinase assay IC50, Table 2a; D770_N771insSVD; 2 mM ATP
PARAMETER MEASURED: IC50
Please state the value followed by its unit.

Worked examples, 6 compounds total:
compound="CN(C)C/C=C/C(=O)N1CCn2nc(-c3ccc(SC(F)(F)F)cc3)c(-c3ccncc3)c2C1 [Example 161]" experimental_system="mutEGFR (D770_N771insSVD) (Homo sapiens, UniProt P00533, DUP768-770)" parameter_measured=IC50 experimental_value="92.9 nM"
compound="CN(C)C/C=C/C(=O)N1CCn2nc(-c3ccc4cc[nH]c4c3)c(-c3ccncc3)c2C1 [Example 200]" experimental_system="mutEGFR (D770_N771insSVD) (Homo sapiens, UniProt P00533, DUP768-770)" parameter_measured=IC50 experimental_value="0.161 nM"
compound="C=CC(=O)N1Cc2c(-c3ccncc3)c(-c3ccc4cc(F)sc4c3)nn2CC1C (racemic) [Example 229]" experimental_system="mutEGFR (D770_N771insSVD) (Homo sapiens, UniProt P00533, DUP768-770)" parameter_measured=IC50 experimental_value="0.188 nM"
compound="CN(C)C/C=C/C(=O)N1CCn2nc(-c3cccc(Cl)c3)c(-c3ccncc3)c2C1 [Example 150]" experimental_system="mutEGFR (D770_N771insSVD) (Homo sapiens, UniProt P00533, DUP768-770)" parameter_measured=IC50 experimental_value="0.764 nM"
compound="CCN(CC)C/C=C/C(=O)N1CCn2nc(-c3ccc(F)cc3)c(-c3ccncc3)c2C1 [Example 69]" experimental_system="mutEGFR (D770_N771insSVD) (Homo sapiens, UniProt P00533, DUP768-770)" parameter_measured=IC50 experimental_value="1.73 nM"
compound="Cc1c[nH]c2nccc(-c3c(-c4ccc(C(F)(F)F)cc4)nn4c3CN(C(=O)/C=C/CN(C)C)[C@H](C)C4)c12 [Example 266]" experimental_system="mutEGFR (D770_N771insSVD) (Homo sapiens, UniProt P00533, DUP768-770)" parameter_measured=IC50 experimental_value="462 nM"

For the next question, use this compound.
Input: Provide only the value of recorded IC50 for C[C@@H]1Cn2nc(-c3ccc(Cl)cc3)c(-c3ccncc3)c2CN1C(=O)/C=C/CN(C)C [Example 246]
Output: 0.131 nM

Measured values drawn from patent US20260365653A1 for this set.
